assay: Pharmacokinetics in dog (PDX-T-07054-D); assay type: in vivo; details: both sexes, dog, plasma, 0.7 mg/kg, dog, Day 281, 0.7 mg/kg; range of the mean for males and females and for PDX-10a and PDX-10b; read-out: t1/2 term
Endpoint: half-life

Req: Would you kindly share the measured half-life for C#CC[C@@H](Cc1cnc2nc(N)nc(N)c2n1)c1ccc(C(=O)N[C@@H](CCC(=O)O)C(=O)O)cc1 (single isomer, unassigned) [PDX-10a] ?
Resp: 4.7 to 5.5 h

Req: Would you kindly share the measured half-life for C#CC[C@H](Cc1cnc2nc(N)nc(N)c2n1)c1ccc(C(=O)N[C@@H](CCC(=O)O)C(=O)O)cc1 (single isomer, unassigned) [PDX-10b] ?
Resp: 4.7 to 5.5 h

meta.source: patent US8835433B2
